From: patent US8999956B2

Reported Efficacy values for the following molecules.
- Test system: Puccinia triticina
- measurement-description: In vivo preventive test on Puccinia triticina (wheat)
- test-conditions: Table K, 500 ppm of active ingredient, evaluated 8 days after inoculation
reported-endpoint: Efficacy (%)

[
  {
    "molecule": "Cn1nc(C(F)F)c(C(=O)NC2CCCCC2Oc2ccccc2)c1Cl (stereo not shown) [Example 246]",
    "reported-endpoint": "Efficacy",
    "numeric-result": 95
  },
  {
    "molecule": "CC(CC(C)(C)C)C1CCCCC1NC(=O)c1c(C(F)F)nn(C)c1F (single isomer, unassigned) [Example 360]",
    "reported-endpoint": "Efficacy",
    "numeric-result": 100
  },
  {
    "molecule": "CCCCCCC1CCCCC1NC(=O)c1c(C(F)F)nn(C)c1F (stereo not shown) [Example 326]",
    "reported-endpoint": "Efficacy",
    "numeric-result": 100
  },
  {
    "molecule": "CC(C)CC(C)C1CCCCC1NC(=O)c1c(C(F)F)nn(C)c1Cl (single isomer, unassigned) [Example 335]",
    "reported-endpoint": "Efficacy",
    "numeric-result": 100
  }
]
